src = the RNAGym collection of RNA variant scans (doi:10.7554/elife.90254)

B1: LINE1-full (parent)
chain: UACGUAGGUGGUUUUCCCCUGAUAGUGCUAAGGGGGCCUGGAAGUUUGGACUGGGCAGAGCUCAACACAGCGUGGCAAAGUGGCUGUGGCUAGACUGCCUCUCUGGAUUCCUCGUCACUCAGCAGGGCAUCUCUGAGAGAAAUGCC

variants of: B1; assay: self-cleavage, relative activity (ratio to wild type); higher = more cleavage; in vitro, sequencing; the parent is a self-cleaving ribozyme
Give Y when the value for self-cleavage is at least 0.7. Give N when it is less.

[[record]]
variant_designation = "A78G C84A"
label_class = "N"

[[record]]
variant_designation = "U13G G105A"
label_class = "Y"

[[record]]
variant_designation = "U45C A117U"
label_class = "Y"

[[record]]
variant_designation = "U45A U134C"
label_class = "Y"

[[record]]
variant_designation = "U102C C120U"
label_class = "Y"


Quick check: does A22U A79G have self-cleavage greater than or equal to 0.7?
Y

Quick check: does A117U C123U have self-cleavage greater than or equal to 0.7?
Y

Quick check: does G44A A121G have self-cleavage greater than or equal to 0.7?
Y

Quick check: does U5A U12G have self-cleavage greater than or equal to 0.7?
N

Quick check: does U20A G48A have self-cleavage greater than or equal to 0.7?
Y

Quick check: does U14G U87C have self-cleavage greater than or equal to 0.7?
N
